test: in vitro; assay type: cell-based; details: human; African green monkey
Measured Endpoint: CC50 at 48 h

Q: Which CC50 at 48 h value is on record for CC(C)c1nc(CN(C)C(=O)N[C@@H](CCN2CCOCC2)C(=O)N[C@H](CC[C@H](Cc2ccccc2)NC(=O)OCc2cncs2)Cc2ccccc2)cs1 [Cobicistat] ?
Ans: 38.7 to 53 µM

---

biological target: 3CLpro (Severe acute respiratory syndrome coronavirus 2, UniProt P0DTD1); experiment: 3CLpro fluorescence resonance energy transfer (FRET) assay
For each of the molecules below, state its pEC50.
One number for each entry, as −log10 of the molar value.

CCC[C@@]1(CCc2ccccc2)CC(O)=C([C@H](CC)c2cccc(NS(=O)(=O)c3ccc(C(F)(F)F)cn3)c2)C(=O)O1    4.33

In the following, a different molecule is considered.
Q: Checklist item: pEC50 tested on 3CLpro (Severe acute respiratory syndrome coronavirus 2, UniProt P0DTD1), entry "Cc1cccc(C)c1OCC(=O)N[C@@H](Cc1ccccc1)[C@@H](O)C[C@H](Cc1ccccc1)NC(=O)[C@H](C(C)C)N1CCCNC1=O" , value?
Ans: 3.66
